experimental system: CA-IX expressing HT-29 cells (Homo sapiens, UniProt Q16790)
Construct: CA-IX, expressed in its physiological environment at the cell-surface; host or cells: HT-29 human colorectal adenocarcinoma cells
method notes: Cellular binding assessment by flow cytometry
run parameters: HT-29 cells, 1 hour 30 min on ice, flow cytometry; read-out: CA-IX receptor affinity (KD, nM to HT-29 cells)
Some compounds, each annotated with its measured Kd.
Numbers only here, please. The scale is nM.

- compound: "CC1(C)C(/C=C/C2=C(Oc3ccc(S(=O)(=O)O)cc3)C(=C/C=C3/N(CCCCCC(=O)NCCCCCCCC(=O)Nc4nnc(S(N)(=O)=O)s4)c4ccc(C(=O)NC[C@H](O)[C@@H](O)[C@H](O)[C@H](O)CO)cc4C3(C)C)/CCC2)=[N+](CCCCS(=O)(=O)[O-])c2ccc(C(=O)NC[C@H](O)[C@@H](O)[C@H](O)[C@H](O)CO)cc21"
  units of measure: "nM"
  Kd: 174
- compound: "CC(CC[N+]1=C(/C=C/C=C/C=C/C=C2/N(CCCCCC(=O)NCCCCCCCC(=O)Nc3nnc(S(N)(=O)=O)s3)c3ccc(C(=O)NC[C@H](O)[C@@H](O)[C@H](O)[C@H](O)CO)cc3C2(C)C)C(C)(C)c2cc(C(=O)NC[C@H](O)[C@@H](O)[C@H](O)[C@H](O)CO)ccc21)S(=O)(=O)[O-] (stereo partly shown)"
  units of measure: "nM"
  Kd: 58
- compound: "CC(=O)NC(CCCCn1cc(CCCC(=O)Nc2nnc(S(N)(=O)=O)s2)nn1)C(=O)NCCOCCOCCNC(=O)CCCCCN1/C(=C/C=C2\\CCCC(/C=C/C3=[N+](CCCCS(=O)(=O)[O-])c4ccc(C(=O)NC[C@H](O)[C@@H](O)[C@H](O)[C@H](O)CO)cc4C3(C)C)=C2Oc2ccc(S(=O)(=O)O)cc2)C(C)(C)c2cc(C(=O)NC[C@H](O)[C@@H](O)[C@H](O)[C@H](O)CO)ccc21 (stereo partly shown) [Reference 2]"
  units of measure: "nM"
  Kd: 349

Here's the next entry for you.
Q) Query: Kd; subject: CC(=O)NC(CCCCn1cc(CCCC(=O)Nc2nnc(S(N)(=O)=O)s2)nn1)C(=O)NCCOCCOCCNC(=O)CCCCCN1/C(=C/C=C/C=C/C=C/C2=[N+](CCC(C)S(=O)(=O)[O-])c3ccc(C(=O)NC[C@H](O)[C@@H](O)[C@H](O)[C@H](O)CO)cc3C2(C)C)C(C)(C)c2cc(C(=O)NC[C@H](O)[C@@H](O)[C@H](O)[C@H](O)CO)ccc21 (stereo partly shown) [Reference 3]
A) 251

###

method notes: Optical characterization (excitation/emission maxima, molar extinction coefficient)
Type: physicochemical
run parameters: in water
Some compounds, each annotated with its measured molar extinction coefficient (ε).
Numbers only here, please. The scale is M⁻¹ cm⁻¹.

Recorded results for 2 compounds are shown here.
- compound: "CC(CC[N+]1=C(/C=C/C=C/C=C/C=C2/N(CCCCCC(=O)NCCCCCCCC(=O)Nc3nnc(S(N)(=O)=O)s3)c3ccc(C(=O)NC[C@H](O)[C@@H](O)[C@H](O)[C@H](O)CO)cc3C2(C)C)C(C)(C)c2cc(C(=O)NC[C@H](O)[C@@H](O)[C@H](O)[C@H](O)CO)ccc21)S(=O)(=O)[O-] (stereo partly drawn) [Compound 2]"
  value type: "molar extinction coefficient (ε)"
  test result: 250000
- compound: "CC1(C)C(/C=C/C2=C(Oc3ccc(S(=O)(=O)O)cc3)C(=C/C=C3/N(CCCCCC(=O)NCCCCCCCC(=O)Nc4nnc(S(N)(=O)=O)s4)c4ccc(C(=O)NC[C@H](O)[C@@H](O)[C@H](O)[C@H](O)CO)cc4C3(C)C)/CCC2)=[N+](CCCCS(=O)(=O)[O-])c2ccc(C(=O)NC[C@H](O)[C@@H](O)[C@H](O)[C@H](O)CO)cc21 [Compound 1]"
  value type: "molar extinction coefficient (ε)"
  test result: 250000

Here's the next entry for you.
Q) Query: molar extinction coefficient (ε); subject: CC1(C)C(/C=C/C2=C(Oc3ccc(CCC(=O)NCCCCCCCC(=O)Nc4nnc(S(N)(=O)=O)s4)cc3)C(=C/C=C3/N(CCCCS(=O)(=O)O)c4ccc(S(=O)(=O)O)cc4C3(C)C)/CCC2)=[N+](CCCCS(=O)(=O)[O-])c2ccc(S(=O)(=O)O)cc21 [Reference 1]
A) 255000

###

Tested on: HT-29 excised tumors and tissues
method notes: Ex vivo biodistribution in excised tumors and organs
Set-up: species or system mice
run parameters: ex vivo, 24 hours after administration, 1 nmol
Some compounds, each annotated with its measured Organ-to-muscle ratio, skin (mean ± SD).

Recorded results for 3 compounds are shown here.
- compound: "CC1(C)C(/C=C/C2=C(Oc3ccc(CCC(=O)NCCCCCCCC(=O)Nc4nnc(S(N)(=O)=O)s4)cc3)C(=C/C=C3/N(CCCCS(=O)(=O)O)c4ccc(S(=O)(=O)O)cc4C3(C)C)/CCC2)=[N+](CCCCS(=O)(=O)[O-])c2ccc(S(=O)(=O)O)cc21 [Reference 1]"
  Organ-to-muscle ratio, skin (mean ± SD): "1.4 ± 0.0"
- compound: "CC(CC[N+]1=C(/C=C/C=C/C=C/C=C2/N(CCCCCC(=O)NCCCCCCCC(=O)Nc3nnc(S(N)(=O)=O)s3)c3ccc(C(=O)NC[C@H](O)[C@@H](O)[C@H](O)[C@H](O)CO)cc3C2(C)C)C(C)(C)c2cc(C(=O)NC[C@H](O)[C@@H](O)[C@H](O)[C@H](O)CO)ccc21)S(=O)(=O)[O-] (some centres unmarked)"
  Organ-to-muscle ratio, skin (mean ± SD): "1.5 ± 0.3"
- compound: "CC(=O)NC(CCCCn1cc(CCCC(=O)Nc2nnc(S(N)(=O)=O)s2)nn1)C(=O)NCCOCCOCCNC(=O)CCCCCN1/C(=C/C=C2\\CCCC(/C=C/C3=[N+](CCCCS(=O)(=O)[O-])c4ccc(C(=O)NC[C@H](O)[C@@H](O)[C@H](O)[C@H](O)CO)cc4C3(C)C)=C2Oc2ccc(S(=O)(=O)O)cc2)C(C)(C)c2cc(C(=O)NC[C@H](O)[C@@H](O)[C@H](O)[C@H](O)CO)ccc21 (some centres unmarked) [Reference 2]"
  Organ-to-muscle ratio, skin (mean ± SD): "1.7 ± 0.4"

Q) Query: Organ-to-muscle ratio, skin (mean ± SD); subject: CC1(C)C(/C=C/C2=C(Oc3ccc(S(=O)(=O)O)cc3)C(=C/C=C3/N(CCCCCC(=O)NCCCCCCCC(=O)Nc4nnc(S(N)(=O)=O)s4)c4ccc(C(=O)NC[C@H](O)[C@@H](O)[C@H](O)[C@H](O)CO)cc4C3(C)C)/CCC2)=[N+](CCCCS(=O)(=O)[O-])c2ccc(C(=O)NC[C@H](O)[C@@H](O)[C@H](O)[C@H](O)CO)cc21
A) 1.2 ± 0.1

Q) Query: Organ-to-muscle ratio, skin (mean ± SD); subject: CC(=O)NC(CCCCn1cc(CCCC(=O)Nc2nnc(S(N)(=O)=O)s2)nn1)C(=O)NCCOCCOCCNC(=O)CCCCCN1/C(=C/C=C/C=C/C=C/C2=[N+](CCC(C)S(=O)(=O)[O-])c3ccc(C(=O)NC[C@H](O)[C@@H](O)[C@H](O)[C@H](O)CO)cc3C2(C)C)C(C)(C)c2cc(C(=O)NC[C@H](O)[C@@H](O)[C@H](O)[C@H](O)CO)ccc21 (some centres unmarked) [Reference 3]
A) 2.0 ± 0.5

###

Tested on: HT-29 excised tumors and tissues
method notes: Ex vivo biodistribution in excised tumors and organs
Set-up: species or system mice
run parameters: ex vivo, 24 hours after administration, 1 nmol
Some compounds, each annotated with its measured Organ-to-muscle ratio, kidney (mean ± SD).
Answer using only a numeral; do not append any unit.

- compound: "CC1(C)C(/C=C/C2=C(Oc3ccc(S(=O)(=O)O)cc3)C(=C/C=C3/N(CCCCCC(=O)NCCCCCCCC(=O)Nc4nnc(S(N)(=O)=O)s4)c4ccc(C(=O)NC[C@H](O)[C@@H](O)[C@H](O)[C@H](O)CO)cc4C3(C)C)/CCC2)=[N+](CCCCS(=O)(=O)[O-])c2ccc(C(=O)NC[C@H](O)[C@@H](O)[C@H](O)[C@H](O)CO)cc21 [Compound 1]"
  test result: 6.0

Q) Query: Organ-to-muscle ratio, kidney (mean ± SD); subject: CC(=O)NC(CCCCn1cc(CCCC(=O)Nc2nnc(S(N)(=O)=O)s2)nn1)C(=O)NCCOCCOCCNC(=O)CCCCCN1/C(=C/C=C2\CCCC(/C=C/C3=[N+](CCCCS(=O)(=O)[O-])c4ccc(C(=O)NC[C@H](O)[C@@H](O)[C@H](O)[C@H](O)CO)cc4C3(C)C)=C2Oc2ccc(S(=O)(=O)O)cc2)C(C)(C)c2cc(C(=O)NC[C@H](O)[C@@H](O)[C@H](O)[C@H](O)CO)ccc21 (stereo partly drawn) [Reference 2]
A) 19.7

Q) Query: Organ-to-muscle ratio, kidney (mean ± SD); subject: CC1(C)C(/C=C/C2=C(Oc3ccc(CCC(=O)NCCCCCCCC(=O)Nc4nnc(S(N)(=O)=O)s4)cc3)C(=C/C=C3/N(CCCCS(=O)(=O)O)c4ccc(S(=O)(=O)O)cc4C3(C)C)/CCC2)=[N+](CCCCS(=O)(=O)[O-])c2ccc(S(=O)(=O)O)cc21 [Reference 1]
A) 2.4
